Data origin: ChEMBL document CHEMBL1137307

experiment: Oral bioavailability in Sprague-Dawley rat at 10 mg/kg, po; details: in vivo
measure: bioavailability (%)
Enter your answer as a number in %; do not include the unit.

Input CCc1nc2c(C)cc(C)nc2n1Cc1ccc(-c2c(C(=O)O)n(C)c(=O)c3ccccc23)cc1 . Output bioavailability: 0

====

biological target: Angiotensin II receptor (AT-1) type-1 (Rattus norvegicus, UniProt P29089+P25095); assay: Displacement of [125I]Sar1,Ile8-Ang2 from AT1 receptor in rat hepatic membrane; assay type: cell membranes, Liver
measure: IC50 (nM)
Enter your answer as a number in nM; do not include the unit.

C=C1C(C(=O)O)=C(c2ccc(Cn3c(CCC)nc4c(C)cc(C)nc43)cc2)c2ccccc21 on Angiotensin II receptor (AT-1) type-1 (Rattus norvegicus, UniProt P29089+P25095) gives IC50 = 60

CCCc1nc2c(C)cc(C)nc2n1Cc1ccc(C2(CC(=O)O)CC(=O)c3ccccc32)cc1 (stereo not given) on Angiotensin II receptor (AT-1) type-1 (Rattus norvegicus, UniProt P29089+P25095) gives IC50 = 139

CCCc1nc2c(C)cc(C)nc2n1Cc1ccc(-c2c(C(=O)O)n(C)c(=O)c3ccccc23)cc1 on Angiotensin II receptor (AT-1) type-1 (Rattus norvegicus, UniProt P29089+P25095) gives IC50 = 5.7

CCCc1nc2c(C)cc(C)nc2n1Cc1ccc(-c2c(C(=O)O)c(Cl)nc3ccccc23)cc1 on Angiotensin II receptor (AT-1) type-1 (Rattus norvegicus, UniProt P29089+P25095) gives IC50 = 7.7
